// reported AC50 for each item listed
# assayed-system: Paired box protein Pax-8 (Homo sapiens)
# Sequence (Q06710 whole entry): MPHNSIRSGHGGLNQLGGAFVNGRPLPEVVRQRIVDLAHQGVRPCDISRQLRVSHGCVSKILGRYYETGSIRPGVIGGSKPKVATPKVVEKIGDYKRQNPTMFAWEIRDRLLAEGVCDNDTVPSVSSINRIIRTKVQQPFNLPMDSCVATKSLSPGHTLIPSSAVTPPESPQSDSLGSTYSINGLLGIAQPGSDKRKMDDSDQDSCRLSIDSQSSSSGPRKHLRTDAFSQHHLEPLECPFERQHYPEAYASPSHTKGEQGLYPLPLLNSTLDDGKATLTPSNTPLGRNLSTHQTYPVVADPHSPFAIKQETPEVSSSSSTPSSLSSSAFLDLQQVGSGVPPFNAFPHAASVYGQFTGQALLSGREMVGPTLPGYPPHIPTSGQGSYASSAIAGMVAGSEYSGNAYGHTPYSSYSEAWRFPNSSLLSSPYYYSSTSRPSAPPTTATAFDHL
# assay-explanation: inhibitors of PAX8-driven TPO luciferase reporter, dose response, RMG-I cells, cherry-pick (AID 687027);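 note: luciferase reporter driven by Pax8 target thyroperoxidase promoter measured by SteadyGlo luminescence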
# Type: functional, cell-based
Activity calls are given as the source filed them.

>  <compound>
CC1CCC/C=C/C2CC(O)CC2C(O)/C=C/C(=O)O1 (centres undefined)

>  <AC50>
< 0.26 µM (active)

$$$$
>  <compound>
CC(C)c1ccc(-c2nc3ccccc3s2)cc1

>  <AC50>
5.31 µM (active)

$$$$
>  <compound>
Cc1cc(C)c2nc(C)cc(N/N=C/c3ccc(O)cc3)c2c1

>  <AC50>
9.08 µM (active)

$$$$
>  <compound>
COc1ccc(NC(=O)N2C[C@@H]3N[C@H](C2)[C@@H]3c2ccc(-c3ccc(OC)cc3)cc2)cc1

>  <AC50>
13.7 µM (active)

$$$$
>  <compound>
COc1cccc(/C=N/Nc2ccc(C(=O)O)cc2)c1O

>  <AC50>
0.635 µM (active)

$$$$
>  <compound>
C[C@@H]1O[C@@H](O[C@@H]2C=C3CCC4C(CC[C@]5(C)[C@@H](c6ccc(=O)oc6)CC[C@]45O)[C@@]3(C)CC2)[C@H](O)[C@H](O)[C@H]1O (some centres undefined)

>  <AC50>
< 0.26 µM (active)

$$$$
>  <compound>
O=S(=O)(NC1CCCCC1N1CCN(c2ccccc2F)CC1)c1ccccc1 (centres undefined)

>  <AC50>
23.1 µM (active)

$$$$
>  <compound>
COc1cccc(S(=O)(=O)Nc2ccc3c(c2)[C@@H]2C[C@@H](CC(=O)NCc4ccc(Cl)cc4)O[C@@H](CO)[C@@H]2O3)c1

>  <AC50>
3.36 µM (active)

$$$$
>  <compound>
COc1cccc(N2CCN(C(=O)c3ccc(C[S+]([O-])c4ccccc4Cl)o3)CC2)c1 (centres undefined)

>  <AC50>
0.921 µM (active)

$$$$
>  <compound>
C[C@@H]1CN([C@@H](C)CO)C(=O)Cc2cc(NC(=O)Nc3ccc(C(F)(F)F)cc3)ccc2O[C@H]1CN(C)Cc1ccc2c(c1)OCO2

>  <AC50>
7.85 µM (active)

$$$$
>  <compound>
COc1cc(C2C3=C(COC3=O)Oc3cc4c(cc32)OCO4)cc(OC)c1O (centres undefined)

>  <AC50>
1.74 µM (active)

$$$$
>  <compound>
COC(=O)C1=C(c2ccc(F)cc2OCc2ccccc2)C[C@@H]2CC[C@H]1N2C(=O)NCc1ccc2[nH]ccc2c1

>  <AC50>
18.2 µM (active)

$$$$
>  <compound>
CCn1c2ccccc2c2cc(NC(=O)c3cc(OC)cc(OC)c3)ccc21

>  <AC50>
4.74 µM (active)

$$$$
>  <compound>
C[C@@H]1CN([C@@H](C)CO)C(=O)c2cc(NC(=O)Nc3ccc(F)cc3)ccc2O[C@@H](C)CCCCO[C@@H]1CN(C)Cc1ccc(C(F)(F)F)cc1

>  <AC50>
9.46 µM (active)

$$$$

====

# assayed-system: Galanin receptor type 3 (Homo sapiens, UniProt O60755)
# Sequence (O60755 whole entry): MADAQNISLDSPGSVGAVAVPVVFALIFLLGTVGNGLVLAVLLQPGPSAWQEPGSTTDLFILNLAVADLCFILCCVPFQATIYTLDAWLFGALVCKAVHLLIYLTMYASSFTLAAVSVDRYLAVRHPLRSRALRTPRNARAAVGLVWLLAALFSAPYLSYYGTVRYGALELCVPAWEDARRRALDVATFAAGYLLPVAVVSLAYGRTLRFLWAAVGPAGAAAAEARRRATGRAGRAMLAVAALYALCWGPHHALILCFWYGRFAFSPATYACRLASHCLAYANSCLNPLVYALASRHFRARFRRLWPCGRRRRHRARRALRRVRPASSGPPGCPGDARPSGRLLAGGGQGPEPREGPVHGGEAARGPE
# assay-explanation: Fluorescence-based cell-based primary high throughput dose response assay to identify antagonists of the Galanin Receptor 3 (GalR3).
# Format: functional
Activity calls are given as the source filed them.
Labels: YES = active, NO = inactive

>  <smiles-str>
COc1ccc(OC)c(CCNC(=O)Cn2nc(C)c3c(C)n(-c4ccc(C)cc4)nc3c2=O)c1

>  <group-label>
YES

$$$$
>  <smiles-str>
CC(C)(C)c1ccc(CSc2cnn(C(C)(C)C)c(=O)c2Cl)cc1

>  <group-label>
YES

$$$$
>  <smiles-str>
COc1cccc(Cn2nc(C(=O)O)c3ccccc3c2=O)c1

>  <group-label>
NO

$$$$
>  <smiles-str>
COc1ccccc1-c1cc(C(F)(F)F)nc(S(=O)(=O)CCCC(=O)Nc2cccnc2Cl)n1

>  <group-label>
NO

$$$$

// data source = ChEMBL document CHEMBL1201862
